TEST NAME: Maximum solubility in water
Assay type: physicochemical
TEST SETTINGS: water at 25° C.; read-out: maximum level of solubility in water
REPORTED ENDPOINT: solubility (µg/mL)

input_smiles=N[C@@H](CCSC[C@H](N)C(=O)O)C(=O)O reported_endpoint=solubility recorded_measurement=600
